Reference source: the supplement of paper PMC9170038

System: K4 kissing-loop RNA reporter;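 note: bound reporter read as fluorescence of individual clusters on recovered sequencing chips by microscopy, with normalized cluster intensities fitted with a binding model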
Method notes: apparent KD of K4 kissing-loop reporter; higher = weaker reporter binding
Run conditions: Eterna round: R107; input ligand: FMN 200 uM
Quantity name: apparent KD of K4 kissing-loop reporter (nM)
Please respond with the number in nM and leave the unit unwritten.

Input line: For the sequence shown here, UGAUAGGACAGAAGGAGCGGAAGUGAUGUUUCCAAAAGGAAAGGUCGACAAAGUCGACCCUUCCAGGUAGGUCGCUGUCCUAUCU [ArgBX 8 #Palindromic #SwitchBubble #StaticStem] , give the reported apparent KD of K4 kissing-loop reporter.
Output line: 88.2

Input line: Name the recorded apparent KD of K4 kissing-loop reporter for UGUAUGGACUGAAGGAGCGCUAGGAGUGUGAGUGAUGUUCAUACAAAUGUAUAGAUGGUCUGGCAGGUAGGUCGCAGUCCAUACU [KL-SSArg B4] .
Output line: 258

Input line: Consider the sequence shown here: UUAGUCAGAUUAUUAUUAGCCUGCGAGUCUAAGGAUAUCCGAAUUCGGAGAAGGUAGUGAUGUUACUUUGGCAGGCACUGACAUU [AK9 Exc FMN A] What is its recorded apparent KD of K4 kissing-loop reporter?
Output line: 807

Input line: Given the sequence UCCUAGGCUCGAAAGAGCCUAGGAUUUACUCAGGAUAUCCGGAAACGGAGAAGGGAGUGACUAGUGAUGUUAGGGACUCCCUAUU , what is its reported apparent KD of K4 kissing-loop reporter?
Output line: 93.1

Input line: Any idea what apparent KD of K4 kissing-loop reporter was measured for GCAGCUCGGGAGUGAUGUUCUCGUAGAGGAAAGGAUAUGUACUUAGACAGAAGGUUCGCAAUUUGCGGUCUUAAGAUAGAAUAAC [theeternabot_sameState_KL_FMN_A_40] ?
Output line: 177

Input line: Would you kindly share the measured apparent KD of K4 kissing-loop reporter for GCCGUAGAUUGAAGGAGCGGGCCGUAGUGAUGUUACGCCAAAUUAUCCUUUCUUGAGGUGGUCCAGGUAGGUCGCAAUCUACGGC ?
Output line: 168

Input line: Look up apparent KD of K4 kissing-loop reporter for this sequence: AGGAUCCACCAGUGAUGUUGGAAAUACAUCAAGGAUAUGACGAAAGUCAGAAGGUGGUAGACUGGACAAAGUCCAGUUGGAUCCA [KL-SSFMN-A18]
Output line: 135

Input line: Quick check: apparent KD of K4 kissing-loop reporter of GGCAUCCAUGGACAUAGUGAUGUUAUGUACCGAGGACCGGUACGGCCGCCACUCGGCCAUGGAUGCCGCAAUCGGAAACGAUUGC ?
Output line: 868

Input line: // lookup apparent KD of K4 kissing-loop reporter for GGUUCUCUGUUAGGAUAUAGAUUAGAGUGAUGUUCUAACGGCCCGGGCCCGAAAGGGCCCGGGCCGCUAGAAGGAACGGAGUUGG [#2 Same State - FMN A Attempt #1 (HarryS)]
Output line: 399

Input line: Need apparent KD of K4 kissing-loop reporter, item GAUAGUUAGAGAGAUACCAGCGAUACCUAGAUGGAAAGUGAUGUUCGCCAUCAAUUGCACCGCCCUUGGCAGCUCUCUCUUUGCU [theeternabot_exclusion_KL_Theo_B_37]
Output line: 995

Input line: What does the data say about its apparent KD of K4 kissing-loop reporter? Entry: UGAUAGGACAGAAGGAGCGGAAUCCUGUCAAAGACAGGAAAAUAAAUAAAAGGAGUGAUGUUCCAGGUAGGUCGCUGUCCUAUCU [ArgBX 19 #SwitchBubble #StaticStem]
Output line: 271

Input line: Need apparent KD of K4 kissing-loop reporter of UUUAUUUUCUGAGGAUAUCGUUUUACUGAAGUGAUGUUUCAGUAUUUUCAUAUUAUAUAUAAUUUUCGAGAAGGCAGUAUUAUUA [JR_Nu_SSFMNB_Sub027] , thanks.
Output line: 83.5

---

Test system: MS2 coat protein
Method notes: apparent KD of MS2 coat protein; designed switch direction (-1 OFF switch, 1 ON switch): -1; higher = weaker reporter binding
Run conditions: input ligand: FMN 200 uM
Threshold rule: apparent KD of MS2 coat protein greater than or equal to 60 nM is YES; below that, NO.

Input line: Answer whether apparent KD of MS2 coat protein of GCAGCAUAGUUUACUAACUGUUACAUGAGGAUCACCCAUGUUUAGGAUAUGGUCUGGAUUACAGGCCAGAAGGAAACAAGCUGC [Eli exng3 - 033] (Eterna round: R96, puzzle: Exclusion NG 3) is greater than or equal to 60 nM.
Output line: NO

Input line: API: above_or_equal(metric=apparent KD of MS2 coat protein, cutoff=60 nM) for item GAGUUAGCGUGUGGCACAUACAUGAGGAUCACCCAUGUUAGCUUAUAUAUUGCUCGUCUUAUAACAACACUUAACUG [Mod JX-Electric-eye5] (Eterna round: R97, puzzle: Sensor, turn-off variant 1)
Output line: NO

Input line: Does the reported apparent KD of MS2 coat protein for GAGGUCGCAGGAUAUAGUACAUAGAACAUGAGGAUCACCCAUGUAGCGGGAGGUUCUAUAUUAGAAGGGUGAAGUC [Eternabot (L2) Solution 97] (Eterna round: R97, puzzle: Exclusion 5) fall at or above the 60 nM mark?
Output line: YES

Input line: Does AGAGAAUAGUCAGGAUAUCUUAAUAGAAAGAAUAGAGAAGGGACACAUGAGGAUCACCCAUGUGAAGUCUUGAGACUACAUGGU [Prohibition 30 - Jieux - Exclusion NG 1] (Eterna round: R96, puzzle: Exclusion NG 1) have a reported apparent KD of MS2 coat protein of at least 60 nM?
Output line: YES

Input line: Given GCUGGUCGAGGAUAUACAUGAGGAUCACCCAUGUAGAUCAACCAGCGAUAGCUGGAAUGUAGAAGGUGACCAGC [E3/5-B1] (Eterna round: R97, puzzle: Exclusion 3) , state whether its apparent KD of MS2 coat protein is at least 60 nM.
Output line: NO

Input line: I'd appreciate it if you could say whether AGCUGUGGCCGAGGAUAUCACAUGAGGAUCACCCAUGUACAUGAUUAGGCCUGGUAACAGGCUCAUGAGAAGGCGGUCUCAGCA [Eli eng2 - 013] (Eterna round: R96, puzzle: Exclusion NG 2) has apparent KD of MS2 coat protein at least equal to 60 nM.
Output line: NO

Input line: # check: apparent KD of MS2 coat protein of AUCAGCUCGUCAGGAUAUACAUGCGUGCUUCGGCACGUAUGAUAGAUCACAUGAGGAUCACCCAUGUAGAAGGGACGAGCUGAU [ENG2/4-B3] (Eterna round: R96, puzzle: Exclusion NG 2) is greater than or equal to 60 nM
Output line: NO

Input line: Check the entry GCUUGUAGAGGAUAUACGAGGGCCCGAGCGGAUAACACCGCACAUGAGGAUCACCCAUGUAGAAGGCUACUAUU [JL-ex2-4.18 ViennaUCT mod] (Eterna round: R97, puzzle: Exclusion 2) : does apparent KD of MS2 coat protein equal or exceed 60 nM?
Output line: YES

---

Test system: MS2 coat protein
Method notes: apparent KD of MS2 coat protein; designed switch direction (-1 OFF switch, 1 ON switch): -1; higher = weaker reporter binding
Run conditions: Eterna round: R95; input ligand: microRNA oligo, concentration not stated
We use 0.04 µM as the dividing line for apparent KD of MS2 coat protein: on or above the line is 1, below is 0.

Input line: // inclusive: apparent KD of MS2 coat protein at least 0.04 µM? input: GACUGAAUUUUGUUUGGUUACAUGAGGAUCACCCAUGUUGGUCUAAGAACAUGUCUUUUGUACGCUUGUCUUAUAUA [JR_SV3TOV1_Sub069] (puzzle: Sensor v3, turn-off variant 1)
Output line: 1

Input line: Does the reported apparent KD of MS2 coat protein for AUAACAAGCUUUUUUUUCGUAGUACAUGACGCUCGAGUCACAUGAGGAUCACCCAUGUCUUCCUGUUUGAUUGUUGA [JR_SV3TOV2_Sub058] (puzzle: Sensor v3, turn-off variant 2) fall at or above the 0.04 µM mark?
Output line: 1

Input line: # bool: apparent KD of MS2 coat protein of AGUUGGCGAGGAUAUACAUGAGGAUCACCCAUGUGAGAGAAUAAAGUGAGAAAGAAAAGUAGAAGGCGCUGACG [Mat - Exclusion 3 - Mod of Salish D50] (puzzle: Exclusion 3) >= 0.04 µM
Output line: 1

Input line: Could you tell me if the measured apparent KD of MS2 coat protein of GACGUGUGAGGAUAUCCGAUGCCGGUCCGGAAGGUUCGGGUGGAGAAGGCACAUGAGGAUCACCCAUGUGUAAG [Excls4-VII] (puzzle: Exclusion 4) reaches 0.04 µM or more?
Output line: 0

Input line: Quick check, apparent KD of MS2 coat protein >= 0.04 µM? GGUGAGCGAGGAUAUACAUGAGGAUCACCCAUGUGAGAGAAUAAAGUGAGGAAGAAAAGUAGAAGGCGCGAACG [Mat - Exclusion 3 - Mod of Salish D47] (puzzle: Exclusion 3)
Output line: 0
